System: SEM cells
Assay: Antiproliferative activity against human SEM cells assessed as cell death measured after 72 hrs by resazurin dye based assay
Format: functional
Reported IC50 values are given for each entry in this list.
Your answer is read as nM, so omit the unit and give the number.

Example compounds with recorded IC50:
# compound, tested.target, recorded.number
rows = [
    ("Fc1cc2[nH]ncc2c2c3c(c(-c4c[nH]nc4C(F)(F)F)nc12)C1CCC3C1 (stereo unspecified)", "SEM cells", 150),
    ("Fc1cc2[nH]ncc2c2c3c(c(-c4cn[nH]c4)nc12)CCCC3", "SEM cells", 1050),
    ("Cc1n[nH]c2cc(F)c3nc(-c4c[nH]nc4C(F)(F)F)c4c(c3c12)CCCC4", "SEM cells", 111),
    ("OCc1n[nH]c2ccc3nc(-c4c[nH]nc4C(F)(F)F)c4c(c3c12)CCCC4", "SEM cells", 437),
    ("Fc1cc2[nH]ncc2c2c3c(c(-c4c[nH]nc4C(F)(F)F)nc12)CCCC3", "SEM cells", 180),
]

Req: For SEM cells, give IC50 of the listed compound: Cc1n[nH]c2ccc3nc(-c4c[nH]nc4C(F)(F)F)c4c(c3c12)CCCC4
Resp: 422

---

Target: Receptor-type tyrosine-protein kinase FLT3 (Homo sapiens, UniProt P36888, ITD)
Sequence (P36888 whole entry, looked up, stated change not applied): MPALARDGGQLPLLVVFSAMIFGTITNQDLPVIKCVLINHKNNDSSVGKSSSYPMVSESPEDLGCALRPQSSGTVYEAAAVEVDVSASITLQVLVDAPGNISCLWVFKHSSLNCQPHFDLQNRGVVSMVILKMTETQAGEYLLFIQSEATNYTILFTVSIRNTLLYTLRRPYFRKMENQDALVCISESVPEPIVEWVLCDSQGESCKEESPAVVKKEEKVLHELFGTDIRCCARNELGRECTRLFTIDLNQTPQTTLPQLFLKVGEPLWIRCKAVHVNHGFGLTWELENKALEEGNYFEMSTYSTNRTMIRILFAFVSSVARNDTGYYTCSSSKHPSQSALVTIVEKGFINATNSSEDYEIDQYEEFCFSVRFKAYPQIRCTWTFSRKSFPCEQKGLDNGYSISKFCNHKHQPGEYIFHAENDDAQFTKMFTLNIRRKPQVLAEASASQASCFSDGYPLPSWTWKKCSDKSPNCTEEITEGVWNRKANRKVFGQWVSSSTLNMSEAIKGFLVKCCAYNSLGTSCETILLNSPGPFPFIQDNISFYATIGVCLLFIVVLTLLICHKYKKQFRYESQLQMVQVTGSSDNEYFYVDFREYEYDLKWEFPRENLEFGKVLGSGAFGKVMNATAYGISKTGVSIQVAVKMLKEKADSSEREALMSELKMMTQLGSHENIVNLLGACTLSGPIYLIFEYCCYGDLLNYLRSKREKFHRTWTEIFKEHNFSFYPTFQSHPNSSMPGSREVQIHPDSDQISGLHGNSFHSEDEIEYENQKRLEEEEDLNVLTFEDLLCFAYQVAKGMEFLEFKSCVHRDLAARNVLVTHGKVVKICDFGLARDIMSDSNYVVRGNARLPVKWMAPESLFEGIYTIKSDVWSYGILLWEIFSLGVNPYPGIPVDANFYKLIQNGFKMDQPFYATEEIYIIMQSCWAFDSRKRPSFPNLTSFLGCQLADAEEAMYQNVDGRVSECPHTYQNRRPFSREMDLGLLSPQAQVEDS
Assay: Binding affinity to human partial length FLT3 ITD mutant expressed in bacterial expression system by KdELECT Discover assay
value.type: Kd
# output: number + unit

Req: Consider the compound Cc1n[nH]c2ccc3nc(-c4c[nH]nc4C(F)(F)F)c4c(c3c12)CCCC4 and give its recorded Kd.
Resp: 1.6 nM

---

System: K562
Assay: cells
Conditions: Homo sapiens, K562, 72 h
Description: Antiproliferative activity against human K562 cells assessed as cell death measured after 72 hrs by resazurin dye based assay
value.type: pIC50
Give only the number. pIC50 is defined as minus log10 of concentration in molar units.

Consider the following illustrative entries.
# compound, tested.target, pIC50
rows = [
    ("CCc1c(C)c(-c2c[nH]nc2C(F)(F)F)nc2ccc3[nH]ncc3c12", "K562", 4.41),
    ("Cn1cc(-c2nc3ccc4[nH]ncc4c3c3c2CCCC3)c(C(F)(F)F)n1", "K562", 4.98),
    ("Cn1cc(-c2nc3ccc4[nH]ncc4c3c3c2CCCC3)c(C2CC2)n1", "K562", 4.47),
    ("FC(F)(F)c1n[nH]cc1-c1nc2ccc3[nH]nc(Br)c3c2c2c1CCCC2", "K562", 4.54),
    ("FC(F)(F)c1n[nH]cc1-c1nc2ccc3[nH]ncc3c2c2c1COCC2", "K562", 5.03),
    ("Fc1cc2[nH]ncc2c2c3c(c(-c4cn[nH]c4)nc12)CCCC3", "K562", 5.48),
]

Req: Tell me measured pIC50 for Fc1n[nH]c2ccc3nc(-c4c[nH]nc4C(F)(F)F)c4c(c3c12)CCCC4 please.
Resp: 4.51

Req: Give me measured pIC50, please, for this compound: FC(F)(F)c1n[nH]cc1-c1nc2ccc3[nH]ncc3c2c2c1CC(C(F)(F)F)CC2 (stereo not given)
Resp: 5.09

Req: Provide pIC50 value for the following compound: Cc1noc(C)c1-c1nc2ccc3[nH]ncc3c2c2c1CCCC2
Resp: 4.51

Req: Please supply the value of reported pIC50 for the item Cc1n[nH]c2ccc3nc(-c4c[nH]nc4C(F)(F)F)c4c(c3c12)CCCC4
Resp: 5.01

Req: Item Cc1n[nH]cc1-c1nc2c(F)cc3[nH]ncc3c2c2c1CCCC2 : provide pIC50
Resp: 5.42

Req: Give the reported pIC50 for this compound. OC1CCc2c(c(-c3c[nH]nc3C(F)(F)F)nc3ccc4[nH]ncc4c23)C1 (stereo not given)
Resp: 4.65

Req: Quickly give me recorded pIC50 for NCC1CCc2c(c(-c3c[nH]nc3C(F)(F)F)nc3c(F)cc4[nH]ncc4c23)C1 (stereo not given)
Resp: 4.80

Req: State its pIC50 for this compound: FC(F)(F)c1n[nH]cc1-c1nc2ccc3[nH]ncc3c2c2c1CC(N1CCOCC1)CC2 (stereo not given)
Resp: 4.48

Req: Report pIC50, nothing else, for this compound: CC(C)c1n[nH]cc1-c1nc2ccc3[nH]ncc3c2c2c1CCCC2
Resp: 4.95

---

Target: Cyclin-dependent kinase 2/cyclin E1 (Homo sapiens, UniProt P24941)
Assay: Inhibition of CDK2/cyclin E1 (unknown origin) in presence of [32P]gammaATP by image analyser
Recorded IC50 by entry
The response must be a number in nM with no trailing unit.

Here are 5 compounds together with their reported answers.
# compound, recorded.number
rows = [
    ("OCc1n[nH]c2ccc3nc(-c4c[nH]nc4C(F)(F)F)c4c(c3c12)CCCC4", 102),
    ("Fc1cc2[nH]ncc2c2c3c(c(-c4c[nH]nc4C(F)(F)F)nc12)CCCC3", 33),
    ("Cc1n[nH]c2ccc3nc(-c4c[nH]nc4C(F)(F)F)c4c(c3c12)CCCC4", 258),
    ("Fc1cc2[nH]ncc2c2c3c(c(-c4cn[nH]c4)nc12)CCCC3", 55),
    ("Fc1cc2[nH]ncc2c2c3c(c(-c4c[nH]nc4C(F)(F)F)nc12)C1CCC3C1 (stereo unspecified)", 31),
]

Turning now to a further record.
Req: Name the recorded IC50 of the item Cc1n[nH]c2cc(F)c3nc(-c4c[nH]nc4C(F)(F)F)c4c(c3c12)CCCC4 in your answer.
Resp: 182

---

Listed compounds paired with reported IC50
Target: CDK2/Cyclin A2 (Homo sapiens, UniProt P24941)
Experiment: Inhibition of CDK2/cyclin A2 (unknown origin) in presence of [32P]gammaATP by image analyser
Format: protein-complex assay
A number alone suffices; assume nM.

# compound, IC50 (nM)
rows = [
    ("OCc1n[nH]c2ccc3nc(-c4c[nH]nc4C(F)(F)F)c4c(c3c12)CCCC4", 141),
    ("Fc1cc2[nH]ncc2c2c3c(c(-c4c[nH]nc4C(F)(F)F)nc12)C1CCC3C1 (stereo unspecified)", 49),
    ("Cc1n[nH]c2cc(F)c3nc(-c4c[nH]nc4C(F)(F)F)c4c(c3c12)CCCC4", 158),
]

Req: Give IC50 for the following compound: Cc1n[nH]c2ccc3nc(-c4c[nH]nc4C(F)(F)F)c4c(c3c12)CCCC4
Resp: 430

Req: Provide only the value of recorded IC50 for Fc1cc2[nH]ncc2c2c3c(c(-c4c[nH]nc4C(F)(F)F)nc12)CCCC3
Resp: 39

Req: // fetch IC50 given entry Fc1cc2[nH]ncc2c2c3c(c(-c4cn[nH]c4)nc12)CCCC3
Resp: 39

---

As an illustration, consider measured IC50 for compounds on Receptor-type tyrosine-protein kinase FLT3 (Homo sapiens).
Dear colleague, please return just the value in nM, with no unit written.

# smiles.notation, recorded.number
rows = [
    ("Fc1cc2[nH]ncc2c2c3c(c(-c4cn[nH]c4)nc12)CCCC3", 21),
]

Req: Specify the recorded IC50 for Cc1n[nH]c2ccc3nc(-c4c[nH]nc4C(F)(F)F)c4c(c3c12)CCCC4 , system: Receptor-type tyrosine-protein kinase FLT3 (Homo sapiens).
Resp: 25

Req: Under Receptor-type tyrosine-protein kinase FLT3 (Homo sapiens), report IC50 for Cc1n[nH]c2cc(F)c3nc(-c4c[nH]nc4C(F)(F)F)c4c(c3c12)CCCC4
Resp: 7

Req: Provide measured IC50 on Receptor-type tyrosine-protein kinase FLT3 (Homo sapiens) for OCc1n[nH]c2ccc3nc(-c4c[nH]nc4C(F)(F)F)c4c(c3c12)CCCC4 please.
Resp: 32

---

Biological target: CDK2/Cyclin A1 (Homo sapiens, UniProt P24941)
Sorting guide: entries reporting IC50 beneath 100 nM go in the met pile, the rest go in the not met pile.

# molecule, classification
measured = [
    ("FC(F)(F)c1n[nH]cc1-c1nc2ccc3[nH]nc(Br)c3c2c2c1CCCC2", "not met"),
    ("FC(F)(F)c1n[nH]cc1-c1nc2c(C(F)(F)F)cc3[nH]ncc3c2c2c1CCCC2", "not met"),
    ("N#CC1CCc2c(c(-c3c[nH]nc3C(F)(F)F)nc3c(F)cc4[nH]ncc4c23)C1 (stereo not drawn)", "not met"),
    ("FC(F)(F)c1n[nH]cc1-c1nc2ccc3[nH]nc(Cl)c3c2c2c1CCCCC2", "not met"),
    ("Cc1n[nH]cc1-c1nc2ccc3[nH]nc(C)c3c2c2c1CCCC2", "not met"),
    ("Nc1ccc(-c2nc3ccc4[nH]ncc4c3c3c2CCCC3)cc1C(F)(F)F", "not met"),
    ("Cn1cc(-c2nc3ccc4[nH]ncc4c3c3c2CCCC3)c(C(F)(F)F)n1", "not met"),
    ("Cc1noc(C)c1-c1nc2ccc3[nH]ncc3c2c2c1CCCC2", "not met"),
    ("Fc1cc2[nH]ncc2c2c3c(c(-c4c[nH]nc4C(F)(F)F)nc12)CCCC3", "met"),
    ("Cc1n[nH]c2ccc3nc(-c4c[nH]nc4C(F)(F)F)c4c(c3c12)CCCC4", "not met"),
]

Req: API: query returns whether the molecule falls strictly under 100 nM in IC50. Query: FC(F)(F)c1n[nH]cc1-c1nc2ccc3[nH]ncc3c2c2c1CC(N1CCOCC1)CC2 (stereo not drawn)
Resp: not met

Req: Lab note: IC50 threshold 100 nM. Does this molecule come in strictly under it? FC(F)(F)c1n[nH]cc1-c1nc2ccc3[nH]ncc3c2c2c1CCCCC2
Resp: met

Req: Just wondering, is IC50 of FC(F)(F)c1n[nH]cc1-c1nc2ccc3[nH]nc(I)c3c2c2c1CCCC2 below 100 nM?
Resp: met

Req: Is the reported IC50 for Cc1n[nH]c2ccc3nc(-c4c[nH]nc4C(F)(F)F)c4c(c3c12)CCC(C#N)C4 (stereo not drawn) strictly below 100 nM?
Resp: not met

Req: Lab note: confirm whether the reported IC50 for this molecule is below 100 nM, equality not counting. molecule: FC(F)(F)c1n[nH]cc1-c1nc2ccc3[nH]ncc3c2c2c1CC(C(F)(F)F)CC2 (stereo not drawn)
Resp: not met

Req: Identify whether the molecule O=C(O)C1CCc2c(c(-c3c[nH]nc3C(F)(F)F)nc3ccc4[nH]ncc4c23)C1 (stereo not drawn) records IC50 below 100 nM.
Resp: not met

Req: is_below(IC50, 100 nM) for c1n[nH]cc1-c1nc2ccc3[nH]ncc3c2c2c1CCCC2 ?
Resp: met
